- assay_target: Cbl-b (Homo sapiens)
- Construct: Cbl-b-HiBit KI Jurkat Cells were purchased from Promega; host or cells: Cbl-b-HiBiT knock-in Jurkat cells
- protocol_text: Cbl-b Degradation Method A (FACS, anti-Cbl-b antibody staining)
- Format: cell-based
- measurement_context: Jurkat, Cbl-b-HiBit KI Jurkat Cells, incubated at least 20 hours; maximum degradation observed; read-out: Cbl-b Degredation Method A Dmax (%)
For each of the molecules below, state its Dmax.

These solved cases illustrate the format of a correct answer.
molecule	val
Cn1cnnc1C[C@]1(c2cccc(N3Cc4c(cc(CN5CCN(C[C@H]6CC[C@H](OC7CCN(c8cccc9c8n(C)c(=O)n9C8CCC(=O)NC8=O)CC7)CC6)CC5(C)C)cc4C(F)(F)F)C3=O)c2)C[C@H](C#N)C1 (stereo partly shown) [Example 301]	> 70%
C[C@@H]1CN(C[C@H]2CC[C@H](OC3CCN(c4ccc5c(c4F)CN(C4CCC(=O)NC4=O)C5=O)CC3)CC2)CCN1Cc1cc2c(c(C(F)(F)F)c1)CN(c1cccc(C3(Cc4nncn4C)COC3)c1)C2=O (stereo partly shown) [Example 195]	> 70%
CC(C)n1c(=O)n(C2CCC(=O)NC2=O)c2cccc(N3CCC(O[C@H]4CC[C@H](CN5CC6(CCN(Cc7cc8c(c(C(F)(F)F)c7)CN(c7cccc([C@]9(Cc%10nncn%10C)C[C@@H](C#N)C9)c7)C8=O)CC6)C5)CC4)CC3)c21 (stereo partly shown) [Example 321]	< 35%

Next, consider the following molecule.
Exam item: Which measured Dmax value corresponds to CC1c2nc(N3CCC(O[C@H]4CC[C@H](CN5CCN(Cc6cc7c(c(C(F)(F)F)c6)CN(c6cccc(C8(c9nncn9C)CCO8)c6)C7=O)C(C)(C)C5)CC4)CC3)ccc2C(=O)N1C1CCC(=O)NC1=O (stereo partly shown) [Example 281] ?
Marked response: 35 to 70%

###

- assay_target: Cbl-b (Homo sapiens, UniProt Q13191)
- Construct: Cbl-b-HiBit KI Jurkat Cells were purchased from Promega; host or cells: Cbl-b-HiBiT knock-in Jurkat cells
- Sequence (Q13191 whole entry): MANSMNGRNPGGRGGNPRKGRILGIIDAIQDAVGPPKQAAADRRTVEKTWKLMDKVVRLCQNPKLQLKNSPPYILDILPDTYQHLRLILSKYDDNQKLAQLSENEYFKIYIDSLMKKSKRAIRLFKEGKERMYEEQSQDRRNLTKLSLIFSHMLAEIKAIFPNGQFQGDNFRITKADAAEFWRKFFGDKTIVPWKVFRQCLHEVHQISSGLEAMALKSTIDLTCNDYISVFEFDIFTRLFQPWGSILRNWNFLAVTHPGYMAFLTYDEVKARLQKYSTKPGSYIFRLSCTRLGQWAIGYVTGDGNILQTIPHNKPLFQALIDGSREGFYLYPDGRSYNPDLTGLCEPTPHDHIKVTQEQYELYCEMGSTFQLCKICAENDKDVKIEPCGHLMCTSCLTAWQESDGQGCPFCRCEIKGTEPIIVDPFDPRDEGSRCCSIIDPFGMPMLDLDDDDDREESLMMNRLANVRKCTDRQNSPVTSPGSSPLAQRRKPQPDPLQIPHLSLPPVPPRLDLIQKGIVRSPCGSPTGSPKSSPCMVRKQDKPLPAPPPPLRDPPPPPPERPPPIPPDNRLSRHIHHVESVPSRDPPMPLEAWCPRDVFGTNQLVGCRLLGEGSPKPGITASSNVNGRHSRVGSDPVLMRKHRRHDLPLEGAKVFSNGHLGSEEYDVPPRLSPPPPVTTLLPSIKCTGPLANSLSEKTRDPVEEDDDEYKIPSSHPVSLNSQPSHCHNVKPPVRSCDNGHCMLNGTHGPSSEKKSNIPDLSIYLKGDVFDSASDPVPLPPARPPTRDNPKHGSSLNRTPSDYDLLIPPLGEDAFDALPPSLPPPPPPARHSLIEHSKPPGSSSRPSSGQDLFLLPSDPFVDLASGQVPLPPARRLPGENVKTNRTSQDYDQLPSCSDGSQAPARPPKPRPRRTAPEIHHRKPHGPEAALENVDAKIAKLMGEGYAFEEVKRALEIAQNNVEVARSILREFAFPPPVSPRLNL
- protocol_text: Cbl-b Degradation Method B (Nano-Glo HiBiT lytic detection)
- Assay type: cell-based
- measurement_context: Cbl-b-HiBit KI Jurkat Cells, incubated at least 6-24 hours; maximum degradation observed; read-out: Cbl-b Degredation Method B Dmax (%)
For each of the compounds below, state its Dmax.

compound	val
CC1c2nc(N3CCC(OC4CCC(CN5[C@H](C)CN(Cc6cc7c(c(C(F)(F)F)c6)CN(c6cccc(C8(Cc9nncn9C)COC8)c6)C7=O)C[C@@H]5C)CC4)CC3)ccc2C(=O)N1C1CCC(=O)NC1=O (some centres unmarked)	> 70%

Next, consider the following compound.
Exam item: Which measured Dmax value corresponds to Cn1cnnc1CC1(c2cccc(N3Cc4c(cc(CN5CCC[C@H](CN6CCN(C[C@H]7CC[C@@H](OC8CCN(c9ccc%10c(c9F)CN(C9CCC(=O)NC9=O)C%10=O)CC8)CC7)CC6(C)C)C5)cc4C(F)(F)F)C3=O)c2)CC1 (some centres unmarked) ?
Marked response: > 70%

###

- assay_target: Cbl-b (Homo sapiens, UniProt Q13191)
- Construct: Cbl-b-HiBit KI Jurkat Cells were purchased from Promega; host or cells: Cbl-b-HiBiT knock-in Jurkat cells
- protocol_text: Cbl-b Degradation Method B (Nano-Glo HiBiT lytic detection)
- Format: cell-based
- measurement_context: Cbl-b-HiBit KI Jurkat Cells, incubated at least 6-24 hours; half maximal degradation; read-out: Cbl-b Degredation Method B IC50
measurement_type: DC50

These solved cases illustrate the format of a correct answer.
molecule	DC50
Cn1cnnc1CC1(c2cccc(N3Cc4c(cc(CN5CCCC(OC6CCN(c7ccc8c(c7F)CN(C7CCC(=O)NC7=O)C8=O)CC6)C5)cc4C(F)(F)F)C3=O)c2)COC1 (stereo not drawn)	> 500 nM
C[C@@H]1C[C@H](CN2CCC(CN3CCC(CN4CCN(c5ccc6c(c5)C(=O)N(C5CCC(=O)NC5=O)C6=O)CC4)CC3)CC2)CN(c2cc3c(c(C(F)(F)F)c2)CN(c2cccc(C4(Cc5nncn5C)COC4)c2)C3=O)C1 (stereo partly drawn)	5 to 50 nM
Cn1cnnc1C[C@]1(c2cccc(N3Cc4c(cc(CN5CCN(C[C@H]6CC[C@H](OC7CCN(c8cccc9c8n(C)c(=O)n9C8CCC(=O)NC8=O)CC7)CC6)CC5(C)C)cc4C(F)(F)F)C3=O)c2)C[C@H](C#N)C1 (stereo partly drawn) [Example 301]	< 5 nM

# per-item lookup of DC50; items listed below
1. Cn1cnnc1CC1(c2cccc(-n3cc4ccc(CN5CCC[C@H](CN6CCN(C[C@H]7CC[C@H](OC8CCN(c9ccc%10c(c9F)CN(C9CCC(=O)NC9=O)C%10=O)CC8)CC7)CC6)C5)cc4n3)c2)COC1 (stereo partly drawn)
2. Cn1cnnc1CC1(c2cccc(N3Cc4c(cc(CN5CCC(CN6CCC7(CC6)CCN(c6ccc8c(c6)C(=O)N(C6CCC(=O)NC6=O)C8=O)CC7)CC5)cc4C(F)(F)F)C3=O)c2)COC1 (stereo not drawn)
3. CC1c2nc(N3CCC(O[C@H]4CC[C@H](CN5CCN(Cc6cc7c(c(C(F)(F)F)c6)CN(c6cccc(C8(Cc9nncn9C)CCOCC8)c6)C7=O)CC5)CC4)CC3)ccc2C(=O)N1C1CCC(=O)NC1=O (mixture of isomers)

Marked response:
1. > 500 nM
2. > 500 nM
3. > 500 nM

# per-item lookup of DC50; items listed below
1. Cn1cnnc1CC1(c2cccc(N3Cc4c(cc(N5CC6(CCN(CC7CCN(c8ccc9c(n8)CN(C8CCC(=O)NC8=O)C9=O)CC7)CC6)C5)cc4C(F)(F)F)C3=O)c2)COC1 (stereo not drawn)
2. Cn1cnnc1C[C@]1(c2cccc(N3Cc4c(cc(CN5CCN(C[C@H]6CC[C@H](OC7CCN(c8ccc(C9CCC(=O)NC9=O)cc8)CC7)CC6)CC5)cc4C(F)(F)F)C3=O)c2)C[C@H](C#N)C1 (stereo partly drawn)
3. Cn1cnnc1CC1(c2cccc(N3Cc4c(cc(N5CC6(CCN(CC7CN(c8ccc9c(c8)C(=O)N(C8CCC(=O)NC8=O)C9=O)C7)CC6)C5)cc4C(F)(F)F)C3=O)c2)COC1 (stereo not drawn)

Marked response:
1. < 5 nM
2. > 500 nM
3. < 5 nM

###

- assay_target: Cbl-b (Homo sapiens, UniProt Q13191)
- Construct: Cbl-b-HiBit KI Jurkat Cells were purchased from Promega; host or cells: Cbl-b-HiBiT knock-in Jurkat cells
- protocol_text: Cbl-b Degradation Method B (Nano-Glo HiBiT lytic detection)
- Type: cell-based
- measurement_context: Cbl-b-HiBit KI Jurkat Cells, incubated at least 6-24 hours; maximum degradation observed; read-out: Cbl-b Degredation Method B Dmax (%)
measurement_type: Dmax

These solved cases illustrate the format of a correct answer.
compound	Dmax
CC1c2nc(N3CCC(OC4CCC(CN5CC6CCC(C5)N6c5cc6c(c(C(F)(F)F)c5)CN(c5cccc(C7(Cc8nncn8C)CC(C#N)C7)c5)C6=O)CC4)CC3)ccc2C(=O)N1C1CCC(=O)NC1=O (stereo not drawn) [Example 183]	< 35%
Cn1cnnc1CC1(c2cccc(N3Cc4c(cc(CN5CC(C6CN(c7ccc8c(c7)C(=O)N(C7CCC(=O)NC7=O)C8=O)C6)C5)cc4C(F)(F)F)C3=O)c2)COC1 (stereo not drawn) [Example 48]	35 to 70%
COc1c(N2CCC(OC3CCC4(CC3)CN(c3cc5c(c(C(F)(F)F)c3)CN(c3cccc(C6(Cc7nncn7C)COC6)c3)C5=O)C4)CC2)ccc2c1CN(C1CCC(=O)NC1=O)C2=O (stereo not drawn) [Example 149]	35 to 70%
Cn1cnnc1C[C@]1(c2cccc(N3Cc4c(cc(CN5CCN(C[C@H]6CC[C@H](OC7CCN(c8ccc9c(c8F)CN(C8CCC(=O)NC8=O)C9=O)CC7)CC6)CC5)cc4C(F)(F)F)C3=O)c2)C[C@H](C#N)C1 (stereo partly drawn) [Example 167]	35 to 70%
Cn1cnnc1CC1(c2cccc(N3Cc4c(cc(N5CCN(C[C@H]6CC[C@H](OC7CCN(c8ccc9c(c8F)CN(C8CCC(=O)NC8=O)C9=O)CC7)CC6)CC5)cc4C(F)(F)F)C3=O)c2)COC1 (stereo partly drawn) [Example 139]	35 to 70%

# per-item lookup of Dmax; items listed below
1. CC1c2nc(N3CCC(O[C@H]4CC[C@H](CN5CCN(Cc6cc7c(c(C(F)(F)F)c6)CN(c6cccc([C@]8(Cc9nncn9C)C[C@@H](C#N)C8)c6)C7=O)CC5)CC4)CC3)ccc2C(=O)N1C1CCC(=O)NC1=O (stereo partly drawn) [Example 203]
2. Cn1cnnc1C[C@]1(c2cccc(N3Cc4c(cc(CN5CCN(C[C@H]6CC[C@H](OC7CCN(c8cccc(C(=O)NC9CCC(=O)NC9=O)c8)CC7)CC6)CC5)cc4C(F)(F)F)C3=O)c2)C[C@H](C#N)C1 (stereo partly drawn) [Example 198]
3. Cn1cnnc1CC1(c2cccc(N3Cc4c(cc(CN5CCN(c6ccc7c(c6)CN(C6CCC(=O)NC6=O)C7=O)CC5)cc4C(F)(F)F)C3=O)c2)COC1 (stereo not drawn) [Example 41]
4. Cc1cc(N2C[C@@H]3C[C@H]2CN3CC2CCC3(CC2)CN(c2cc4c(c(C(F)(F)F)c2)CN(c2cccc([C@]5(Cc6nncn6C)C[C@@H](C#N)C5)c2)C4=O)C3)c(F)c2c1C(=O)N(C1CCC(=O)NC1=O)C2 (stereo partly drawn) [Example 271]

Marked response:
1. 35 to 70%
2. < 35%
3. > 70%
4. 35 to 70%
